- system name: T1, hCD47-ECD/Fc protein (Sinobiological) (human, UniProt Q08722 19-139, biotinylated in the Octet assay, sites not stated)
- T1 construct: extracellular domain; Bought protein; also called human CD47-Fc antigen; recombinant hCD47-ECD/Fc; not shown: Fc part of the bought fusion protein
- T1 sequence (Q08722 19-139 limits assumed): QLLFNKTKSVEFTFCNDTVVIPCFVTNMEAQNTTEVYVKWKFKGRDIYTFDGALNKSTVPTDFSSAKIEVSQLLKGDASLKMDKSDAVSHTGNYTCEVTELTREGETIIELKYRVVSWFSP
- test details: BLI (Octet RED96), biotin-hCD47-ECD/Fc on SA sensors, 1:1 model;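 also: test antibodies as analytes, 300 s association then 300 s dissociation in running buffer, with benchmark reference antibodies run as controls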
recorded endpoint: koff (s⁻¹)
Write it as a number; the unit s⁻¹ goes unstated.

Would you please look over these solved cases?
[
  {
    "binder": "TY25037 (antibody, V domains shown) VH: QVQLVQSGAEVKKPGSSVKVSCKASGYSITSGHYWTWIRQAPGQGLEWIGGIIPVFGTPNYAQKFQGRVTITADKSTSTAYMELSSLRSEDTAVYYCASYGYGGAYFDVWGQGTLVTVSS VL: DIQLTQSPSSLSASVGDRVTITCRASQSVDFHGISFLHWYQQKPGKAPKLLIYDASNRATGIPSRFSGSGSGTDFTLTISSLQPEDFATYYCVQGIQWPWTFGQGTKVEIKR",
    "koff, s⁻¹": "3.42e-05"
  },
  {
    "binder": "TY25039 (antibody, V domains shown) VH: QVQPAQSGAEVKKPGSSVKVSCKASGYSISSGYYWGWIRQAPGQGLEWIGAISYSGSTYYSPSLKSRVTITADKSTSTAYMELSSLRSEDTAVYYCARHYLFAGSTSYDAFDIWGQGTLVTVSS VL: DIQLTQSPSSLSASVGDRVTITCRASQSVDFYGFSFLAWYQQKPGKAPKLLIYDASNRATGIPSRFSGSGSGTDFTLTISSLQPEDFATYYCQQSYRTPLTFGQGTKVEIKR",
    "koff, s⁻¹": "1.37e-05"
  }
]

Next up:
Inquiry: Identify koff associated with the binder TAC2407 (antibody, V domains shown, Benchmark anti-CD47 antibody; also called 13H3; TJC4) VH: EVQLVESGGGLVKPGGSLRLSCAASGLTFERAWMNWVRQAPGKGLEWVGRIKRKTDGETTDYAAPVKGRFSISRDDSKNTLYLQMNSLKTEDTAVYYCAGSNRAFDIWGQGTMVTVSS VL: DIVMTQSPDSLAVSLGERATINCKSSQSVLYAGNNRNYLAWYQQKPGQPPKLLINQASTRASGVPDRFSGSGSGTEFTLIISSLQAEDVAIYYCQQYYTPPLAFGGGTKLEIK
Reply text: 0.000729
